- PROTOCOL DETAILS: Volume of distribution at steady state in Beagle dog at 0.2 mg/kg, iv by LC-MS/MS analysis
- Type: ADME, organism-based, Canis lupus familiaris
- CONDITION: in vivo, read-out: Vdss
PARAMETER MEASURED: Vd (L/kg)
Numbers only, in L/kg.

Entry "Cc1ccc(OC2CN(c3cccc(COC(=O)NC(=N)N)c3F)C2)cn1.O=C(O)C(O)C(O)C(=O)O" , Vd reported as 4.43

* * *

- PROTOCOL DETAILS: Stability in human plasma assessed as parent compound remaining at 2 uM after 6 hrs by LC-MS/MS analysis relative to initial concentration
- Assay type: ADME, cell-free
- CONDITION: read-out: Stability
PARAMETER MEASURED: remaining at 6 h, 2 µM (%)
Numbers only, in %.

Entry "N=C(N)NC(=O)OCc1cccc(-c2cnc(N3CCOCC3)nc2)c1.O=C(O)C(O)C(O)C(=O)O" , remaining at 6 h, 2 µM reported as 101

* * *

- SYSTEM TESTED: CYP1A2 (Homo sapiens, UniProt P05177)
- Sequence (P05177 whole entry): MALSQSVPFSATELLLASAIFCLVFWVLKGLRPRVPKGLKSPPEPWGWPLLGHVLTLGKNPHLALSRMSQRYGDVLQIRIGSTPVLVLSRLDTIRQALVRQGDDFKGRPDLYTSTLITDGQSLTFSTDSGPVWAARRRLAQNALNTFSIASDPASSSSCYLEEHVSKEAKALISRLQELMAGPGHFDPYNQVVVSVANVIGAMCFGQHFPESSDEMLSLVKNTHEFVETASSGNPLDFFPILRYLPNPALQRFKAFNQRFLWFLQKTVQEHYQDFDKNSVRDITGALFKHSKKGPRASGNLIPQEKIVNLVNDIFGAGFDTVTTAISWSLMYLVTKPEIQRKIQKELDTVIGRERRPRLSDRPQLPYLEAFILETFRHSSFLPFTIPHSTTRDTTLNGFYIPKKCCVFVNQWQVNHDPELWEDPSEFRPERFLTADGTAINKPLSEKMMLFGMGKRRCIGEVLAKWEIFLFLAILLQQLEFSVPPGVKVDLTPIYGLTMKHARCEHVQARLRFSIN
- PROTOCOL DETAILS: Inhibition of CYP1A2 in human liver microsomes using phenacetin as substrate assessed as residual activity at 5 uM after 20 mins by HPLC analysis
- Assay type: ADME
- CONDITION: probe phenacetin, read-out: Activity
PARAMETER MEASURED: activity at 20 min, 5 µM (%)
Numbers only, in %.

Some entries whose results are on file:
N=C(N)NC(=O)OCc1cccc(N2CCC(Oc3cccnc3)CC2)c1F.O=C(O)C(O)C(O)C(=O)O	93
Cl.Cl.Cl.N=C(N)NC(=O)OCc1cccc(N2CCN(c3ccncc3)CC2)c1	86
Cl.Cl.Cl.N=C(N)NC(=O)OCc1cccc(N2CCN(c3cccnc3)CC2)c1	55
N=C(N)NC(=O)OCc1cccc(N2CC(Oc3cccnc3)C2)c1F.N=C(N)NC(=O)OCc1cccc(N2CC(Oc3cccnc3)C2)c1F.O=C(O)C(O)C(O)C(=O)O	84
N=C(N)NC(=O)OCc1cccc(N2CCN(c3cccnc3)CC2)c1F.O=C(O)C(O)C(O)C(=O)O	94

I need activity at 20 min, 5 µM for every entry listed below, if you could help.
1. Cc1ccc(OC2CN(c3cccc(COC(=O)NC(=N)N)c3F)C2)cn1.O=C(O)C(O)C(O)C(=O)O
2. N=C(N)NC(=O)OCc1cccc(-c2cnc(N3CCOCC3)nc2)c1.O=C(O)C(O)C(O)C(=O)O
3. Cc1ncccc1OC1CN(c2cccc(COC(=O)NC(=N)N)c2F)C1.O=C(O)C(O)C(O)C(=O)O

Result string:
[99, 96, 89]

* * *

- PROTOCOL DETAILS: Volume of distribution at steady state in Sprague-Dawley rat at 1 mg/kg, iv by LC-MS/MS analysis
- Assay type: ADME, organism-based
- CONDITION: in vivo, read-out: Vdss
PARAMETER MEASURED: Vd
Could you give the number and then its unit, please?

Entry "Cc1ccc(OC2CN(c3cccc(COC(=O)NC(=N)N)c3F)C2)cn1.O=C(O)C(O)C(O)C(=O)O" , Vd reported as 1.06 L/kg

* * *

- SYSTEM TESTED: CYP2D6 (Homo sapiens)
- Sequence (P10635 whole entry): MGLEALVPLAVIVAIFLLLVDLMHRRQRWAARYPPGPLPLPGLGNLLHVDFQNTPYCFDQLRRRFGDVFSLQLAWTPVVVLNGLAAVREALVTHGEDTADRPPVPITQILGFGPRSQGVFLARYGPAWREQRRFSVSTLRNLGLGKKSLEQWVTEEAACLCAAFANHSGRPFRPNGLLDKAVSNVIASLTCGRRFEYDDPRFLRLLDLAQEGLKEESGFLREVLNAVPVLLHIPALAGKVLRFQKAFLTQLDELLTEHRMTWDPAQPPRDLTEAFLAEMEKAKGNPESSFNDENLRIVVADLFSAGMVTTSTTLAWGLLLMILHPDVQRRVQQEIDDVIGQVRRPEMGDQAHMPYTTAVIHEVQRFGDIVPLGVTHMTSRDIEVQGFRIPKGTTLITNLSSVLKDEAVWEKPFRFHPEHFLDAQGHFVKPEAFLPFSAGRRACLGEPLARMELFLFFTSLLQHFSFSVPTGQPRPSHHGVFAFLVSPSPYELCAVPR
- PROTOCOL DETAILS: Inhibition of CYP2D6 in human liver microsomes using dextromethorphan as substrate assessed as residual activity at 5 uM after 20 mins by HPLC analysis
- Format: ADME
- CONDITION: probe dextromethorphan, read-out: Activity
I'd be grateful if you could share measured activity at 20 min, 5 µM for these entries.
One number for each entry, in %.

Cc1ncccc1OC1CN(c2cccc(COC(=O)NC(=N)N)c2F)C1.O=C(O)C(O)C(O)C(=O)O	77
N=C(N)NC(=O)OCc1cccc(N2CCN(c3cccnc3)CC2)c1F.O=C(O)C(O)C(O)C(=O)O	96
N=C(N)NC(=O)OCc1cccc(-c2cnc(N3CCOCC3)nc2)c1.O=C(O)C(O)C(O)C(=O)O	93

Next:
Considering "Cl.Cl.Cl.N=C(N)NC(=O)OCc1cccc(N2CCN(c3cccnc3)CC2)c1" , its activity at 20 min, 5 µM with CYP2D6 (Homo sapiens) was recorded as 68

* * *

- PROTOCOL DETAILS: Tmax in Beagle dog at 0.2 mg/kg, po by LC-MS/MS analysis
- Assay type: ADME, organism-based, Canis lupus familiaris
- CONDITION: in vivo
PARAMETER MEASURED: Tmax

Entry "Cc1ccc(OC2CN(c3cccc(COC(=O)NC(=N)N)c3F)C2)cn1.O=C(O)C(O)C(O)C(=O)O" , Tmax reported as 48 min

* * *

- PROTOCOL DETAILS: Total clearance in Sprague-Dawley rat at 1 mg/kg, iv by LC-MS/MS analysis
- Format: ADME, organism-based
- CONDITION: in vivo
PARAMETER MEASURED: clearance (mL/min/kg)
One number for each entry, in mL/min/kg.

Entry "Cc1ccc(OC2CN(c3cccc(COC(=O)NC(=N)N)c3F)C2)cn1.O=C(O)C(O)C(O)C(=O)O" , clearance reported as 5.2

* * *

- SYSTEM TESTED: UniProt:P11712
- Sequence (P11712 whole entry): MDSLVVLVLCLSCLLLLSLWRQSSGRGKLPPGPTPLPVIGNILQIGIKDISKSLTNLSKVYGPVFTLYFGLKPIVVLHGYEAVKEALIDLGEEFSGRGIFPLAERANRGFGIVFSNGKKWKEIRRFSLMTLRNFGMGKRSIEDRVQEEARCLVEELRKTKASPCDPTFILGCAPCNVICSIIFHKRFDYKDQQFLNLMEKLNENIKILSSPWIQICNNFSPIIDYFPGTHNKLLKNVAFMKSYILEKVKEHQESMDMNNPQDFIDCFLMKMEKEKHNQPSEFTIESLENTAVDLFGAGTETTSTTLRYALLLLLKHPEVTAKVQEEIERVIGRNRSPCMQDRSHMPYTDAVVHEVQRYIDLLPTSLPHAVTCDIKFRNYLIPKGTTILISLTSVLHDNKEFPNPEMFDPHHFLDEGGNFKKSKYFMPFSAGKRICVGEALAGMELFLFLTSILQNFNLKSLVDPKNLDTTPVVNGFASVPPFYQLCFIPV
- PROTOCOL DETAILS: Inhibition of CYP2C9 in human liver microsomes using diclofenac as substrate assessed as residual activity at 5 uM after 20 mins by HPLC analysis
- Type: ADME
- CONDITION: probe diclofenac, read-out: Activity
PARAMETER MEASURED: activity at 20 min, 5 µM
Could you give the number and then its unit, please?

Cl.Cl.Cl.N=C(N)NC(=O)OCc1cccc(N2CCN(c3cccnc3)CC2)c1	101%

Entry "Cl.Cl.Cl.N=C(N)NC(=O)OCc1cccc(N2CCN(c3ccncc3)CC2)c1" , activity at 20 min, 5 µM reported as 80%

* * *

- PROTOCOL DETAILS: Cmax in cynomolgus monkey at 0.2 mg/kg, po by LC-MS/MS analysis
- Type: ADME, organism-based, Macaca fascicularis
- Design: dose 0.2 mg/kg, route oral
- CONDITION: in vivo
PARAMETER MEASURED: Cmax (ng/mL)
Answers are plain numbers, in ng/mL.

Entry "Cc1ccc(OC2CN(c3cccc(COC(=O)NC(=N)N)c3F)C2)cn1.O=C(O)C(O)C(O)C(=O)O" , Cmax reported as 201

* * *

- PROTOCOL DETAILS: Tmax in cynomolgus monkey at 0.2 mg/kg, po by LC-MS/MS analysis
- Type: ADME, organism-based, Macaca fascicularis
- CONDITION: in vivo
PARAMETER MEASURED: Tmax (h)
Give bare numbers, in h.

Entry "Cc1ccc(OC2CN(c3cccc(COC(=O)NC(=N)N)c3F)C2)cn1.O=C(O)C(O)C(O)C(=O)O" , Tmax reported as 2.7

* * *

- PROTOCOL DETAILS: Total clearance in cynomolgus monkey at 0.2 mg/kg, iv by LC-MS/MS analysis
- Format: ADME, organism-based, Macaca fascicularis
- CONDITION: in vivo
PARAMETER MEASURED: clearance (mL/min/kg)
Numbers only, in mL/min/kg.

Entry "Cc1ccc(OC2CN(c3cccc(COC(=O)NC(=N)N)c3F)C2)cn1.O=C(O)C(O)C(O)C(=O)O" , clearance reported as 0.7

* * *

I'd be grateful if you could share measured solubility at 20 h, 130 µM for these entries.
- PROTOCOL DETAILS: Aqueous solubility of compound in Japanese pharmacopoeia second fluid at pH 6.8 at 130 uM after 20 hrs by HPLC analysis
- Assay type: physicochemical
One number for each entry, in µM.

Some entries whose results are on file:
Cl.N=C(N)NC(=O)OCc1cccc(-c2cnc(N3CCOCC3)nc2)c1F	7.5
Cl.Cl.N=C(N)NC(=O)OCc1ccc(F)c(-c2cnc(N3CCOCC3)nc2)c1	68
N=C(N)NC(=O)OCc1cccc(N2CCN(c3cccnc3)CC2)c1F.O=C(O)C(O)C(O)C(=O)O	31

Next:
Entry "Cc1c(COC(=O)NC(=N)N)cccc1-c1cnc(N2CCOCC2)nc1.O=C(O)C(O)C(O)C(=O)O" , solubility at 20 h, 130 µM reported as 34
